# credit: PubChem BioAssay (NCI)

Tested on: SR leukemia
ASSAY_PROCEDURE: NCI-60 one-dose screen, 48 h
STUDY_CONDITIONS: 10 µM unless noted
The panel holds about 83,000 compounds, 20% with a hit somewhere; the sample as a whole holds those more often. Calls of active or inactive are those of the source. The calls were made as follows: active = growth percent below 10; inactive = the rest.
Tick one outcome: active, inactive

Task item: Tell me the recorded outcome of this test for "CC(C)NC(=O)OCc1c(COC(=O)NC(C)C)c(-c2ccc(Cl)cc2)n2c1CCC2" .
Reply: active

Task item: Tell me the recorded outcome of this test for "CC(=O)N(CCCCCCN(C(C)=O)C(C)=O)C(C)=O" .
Reply: inactive

Task item: Tell me the recorded outcome of this test for "CC(C)c1ccc(C(=O)OCCCl)cc1" .
Reply: inactive

Task item: Tell me the recorded outcome of this test for "Clc1cccc(Cl)c1CSc1nc2ccccc2n2cccc12" .
Reply: inactive

Task item: Tell me the recorded outcome of this test for "Cc1ccc2[nH]c3ccccc3c2c1" .
Reply: inactive

Task item: Tell me the recorded outcome of this test for "Cc1cc2c3ccc(C)[n+](C)c3ccc2n1C" .
Reply: inactive

Task item: Tell me the recorded outcome of this test for "C=CCc1cc(OC)c(OC)c(OC)c1" .
Reply: inactive

Task item: Tell me the recorded outcome of this test for "NNC(=O)c1ccccc1N" .
Reply: inactive

Task item: Tell me the recorded outcome of this test for "Cc1ccc(OC(=O)c2ccccc2)cc1" .
Reply: inactive

Task item: Tell me the recorded outcome of this test for "COc1ccc(Nc2cc(Cl)ccc2C(=O)O)cn1" .
Reply: inactive

Task item: Tell me the recorded outcome of this test for "C=CCS(C)(=O)=O" .
Reply: inactive

Task item: Tell me the recorded outcome of this test for "CC(CCC#N)(CCC#N)C(=O)c1ccccc1" .
Reply: inactive

----------
Test system: EKVX NSCLC
ASSAY_PROCEDURE: NCI-60 one-dose screen, 48 h (100 = growth as untreated, 0 = no growth, -100 = all killed)
STUDY_CONDITIONS: 10 µM unless noted
This is part of a sample that, as a whole, favours compounds with a hit. Of some 83,000 tested, about 20% had one in any assay. Active and inactive are the calls of the source. The calls were made as follows: active = growth percent below 10; inactive = the rest.
METRIC: growth

The value of growth recorded for "O=[N+]([O-])c1c(O)c(CNCCCO)cc(CNCCCO)c1O" when tested on EKVX NSCLC reads 96.1% (inactive)

The value of growth recorded for "Cn1c(=O)[nH]c2ccccc2c1=O" when tested on EKVX NSCLC reads 71.6% (inactive)

The value of growth recorded for "CCCNS(=O)(=O)c1ccc(Cl)cc1" when tested on EKVX NSCLC reads 91.6% (inactive)

The value of growth recorded for "O=C1CSc2ccccc2N1" when tested on EKVX NSCLC reads 97% (inactive)

The value of growth recorded for CC12CCC3c4ccc(O)cc4CCC3C1CCC2=O (configuration not stated) when tested on EKVX NSCLC reads 83.8% (inactive)

The value of growth recorded for "Oc1cccc(CNC2CCCCC2)c1" when tested on EKVX NSCLC reads 115% (inactive)

The value of growth recorded for "N#C/C(=C\c1ccc(C#N)cc1)C(=O)c1ccccc1" when tested on EKVX NSCLC reads 109% (inactive)

The value of growth recorded for "S=c1nc2[nH]c3ccccc3c2n[nH]1" when tested on EKVX NSCLC reads 66.4% (inactive)

The value of growth recorded for "C/C(O)=C(/C=N/C(=S)Nc1ccccc1)C(=O)Nc1ccccc1C" when tested on EKVX NSCLC reads 96.6% (inactive)

The value of growth recorded for "CCNc1ccc2ccccc2c1N=Nc1ccc(N=Nc2ccccc2)cc1" when tested on EKVX NSCLC reads 98.5% (inactive)

The value of growth recorded for C=CC(C)C(C)(C)O (configuration not stated) when tested on EKVX NSCLC reads 105% (inactive)

The value of growth recorded for "O=C1C=Cc2ccccc2/C1=C/c1[nH]c(=O)[nH]c1O" when tested on EKVX NSCLC reads 69.6% (inactive)

The value of growth recorded for "Nc1ccc2c(c1)Cc1cc(N)c(N)cc1-2" when tested on EKVX NSCLC reads 88.6% (inactive)

The value of growth recorded for "OC(CCN1CCCCC1)(c1ccccc1)c1ccccc1" when tested on EKVX NSCLC reads 98.9% (inactive)

The value of growth recorded for "CCC(=O)Oc1ccc2ccccc2c1" when tested on EKVX NSCLC reads 95.7% (inactive)

The value of growth recorded for "CC1=CC(=Nc2ccc(N(C)C)cc2)C=C(C)C1=O" when tested on EKVX NSCLC reads 93% (inactive)

The value of growth recorded for "CCCCCC(=O)OCCC1CCCCC1" when tested on EKVX NSCLC reads 108% (inactive)

The value of growth recorded for "COc1ccc(C)cc1NC(=O)SC(C)C" when tested on EKVX NSCLC reads 102% [100 µM] (inactive)

The value of growth recorded for "Cc1ccc(S(N)(=O)=O)cc1Cl" when tested on EKVX NSCLC reads 125% (inactive)

The value of growth recorded for CC(=O)OCC1CCC(COC(C)=O)CC1 (configuration not stated) when tested on EKVX NSCLC reads 94.3% (inactive)

The value of growth recorded for "S=CN1CCCCC1" when tested on EKVX NSCLC reads 96.7% (inactive)

The value of growth recorded for "CSCC[C@@H]1C(=O)N(C)[C@H](C(C)(C)C)N1C(=O)c1ccccc1" when tested on EKVX NSCLC reads 102% (inactive)
